Reported solubility kinetic values for a set of compounds
settings: buffer; pH 7.4; 200.0 µM

Answered examples (4):
{"Compound": "O=C(Cc1ccc([N+](=O)[O-])cc1)Nc1cccnc1", "solubility kinetic": "> 38.6 µg/mL"}
{"Compound": "CC(=O)N=c1sccn1CC(O)c1ccccc1 (stereo not drawn)", "solubility kinetic": "> 39.3 µg/mL"}
{"Compound": "CC1CN=C(NCCc2ccccc2)S1 (stereo not drawn)", "solubility kinetic": "> 33 µg/mL"}
{"Compound": "c1ccc(NCc2ccncc2)cc1", "solubility kinetic": "> 27.6 µg/mL"}

For this compound ( `O=S(=O)(NCc1ccc2c(c1)OCO2)c1ccccc1F` ), measured solubility kinetic is 37.1 µg/mL

The compound listed as `O=C(NC(=S)Nc1ncccn1)c1ccc(F)cc1` has a reported solubility kinetic of 7.3 µg/mL

Reported solubility kinetic ( `CSc1ncc(Cl)c(C(=O)Nc2cc(C)ccc2C)n1` ) = < 0.2 µg/mL

Given item `Cn1cccc1C(=O)OCc1ccc(C(C)(C)C)cc1` , the value recorded as its solubility kinetic is 0.7 µg/mL

Reported solubility kinetic ( `COCCSc1ccccc1C(=O)Nc1ccc(Cl)cc1` ) = 44.1 µg/mL

---

settings: buffer; pH 7.4; 200.0 µM
Value Kind: solubility kinetic

Please review the following examples before continuing.
{"Compound": "Cc1cc(C)cc(N(CC(=O)N2CCCC2)S(C)(=O)=O)c1", "Result": "> 46.6 µg/mL"}
{"Compound": "Cl.NC(N)=NC(N)=Nc1cccc(Cl)c1", "Result": "> 37.2 µg/mL"}
{"Compound": "CN(C(=O)Nc1cccc(C(F)(F)F)c1)C1CCCCC1", "Result": "< 0.3 µg/mL"}
{"Compound": "CC(=O)NC(C)(CC(=O)c1ccccc1)c1ccccc1 (stereo unspecified)", "Result": "> 42.2 µg/mL"}
{"Compound": "O=c1[nH]c(NCCO)nnc1Cc1ccc(Cl)cc1", "Result": "> 42.1 µg/mL"}

Just so you know, measured solubility kinetic for `Cc1nc(-c2ccc(C(=O)NCCO)cc2)cs1` came out at > 39.3 µg/mL

Form: compound = `Cc1ccnc(NC(=O)CNC(=O)c2ccc(C)s2)c1` ; solubility kinetic = > 43.4 µg/mL

Memo: `COc1cccc(/C=C(\C#N)c2nc3ccccc3[nH]2)c1OCC(=O)O` , reported solubility kinetic: > 52.4 µg/mL

---

Entries and their solubility kinetic
conditions: buffer; pH 7.4; 200.0 µM

// below: answered molecules
{"Molecule": "O=C1NC(=O)C(Cc2c[nH]c3ccccc23)N1 (stereo not given)", "Result": "> 34.4 µg/mL"}
{"Molecule": "N#CC(C#N)=Cc1c[nH]c(=O)c(C#N)c1Nc1ccccc1", "Result": "> 43.1 µg/mL"}
{"Molecule": "CC(=O)N1CCN(CCS(=O)(=O)c2cc(Cl)ccc2Cl)CC1", "Result": "> 54.8 µg/mL"}
{"Molecule": "COC(=O)[C@H](Cc1ccccc1)NC(=O)N1CCCCCC1", "Result": "> 45.7 µg/mL"}

Proceeding to the next molecule to report its solubility kinetic.
solubility kinetic recorded for this molecule, Cc1ccc(CC(C(=O)O)C(C)C(=O)Nc2ccc(F)cc2)cc1 (stereo not given) , is > 49.4 µg/mL

---

Measured log10(solubility kinetic), listed per entry for reference.
settings: buffer; pH 7.4; 200.0 µM
Heads up: the numbers are on a log10 scale; they represent solubility kinetic in µg/mL.

The value of log10(solubility kinetic) measured for the molecule `CCn1cc(C(=O)NCCc2ccc(Cl)cc2)c(=O)c2ccc(C)nc21` turned out to be 0.71

Entry under test: `CCC(=O)OCC(=O)Nc1cc(S(=O)(=O)N(C)C)ccc1Cl` . Its log10(solubility kinetic) was 1.66

For this molecule ( `COc1cccc(C(=O)OCC(=O)N2CCC(Cc3ccccc3)CC2)c1OC` ), measured log10(solubility kinetic) is 1.45

Recorded result, `CC(=O)N(Cc1cc(=O)[nH]c2ccccc12)c1ccccc1C` , log10(solubility kinetic): 1.64

GET /value?item= `COc1ccccc1C(=O)c1c(C)c(CCC#N)n2ccccc12` &field=log10(solubility kinetic) returns 1.61

Record `CCOC(=O)N1CCN(C(=S)NC(=O)/C=C/c2ccc(C)cc2)CC1` , field log10(solubility kinetic): 1.26

Noted for CC1CN(C(=O)c2cccs2)CC(C)O1 (stereo unspecified) : its log10(solubility kinetic) reads 1.51

So, `CC(=O)c1ccc(NC(=O)Nc2cccc3ccccc23)cc1` ? Its log10(solubility kinetic) was -0.40

---

settings: buffer; pH 7.4; 200.0 µM
Value Kind: solubility kinetic

Answered cases to consult:
{"Molecule": "O=C1NC(=O)N(c2ccc(F)cc2)C(=O)/C1=C/c1ccsc1", "Value Kind": "solubility kinetic", "Result": "> 47.4 µg/mL"}
{"Molecule": "CCN(C(=O)Cc1c(C(=O)O)n(C)c2ccccc12)c1cccc(C)c1", "Value Kind": "solubility kinetic", "Result": "> 52.6 µg/mL"}
{"Molecule": "CC(=O)CC(=O)C1C(=O)N(C)C(=O)N(C)C1=O", "Value Kind": "solubility kinetic", "Result": "> 36 µg/mL"}
{"Molecule": "CC(=O)Nc1ccc(CN2CCN(CC=C(C)C)C(CCO)C2)cc1 (stereo not drawn)", "Value Kind": "solubility kinetic", "Result": "> 51.8 µg/mL"}
{"Molecule": "O=C(NN1CCOCC1)c1ccc(Br)cc1", "Value Kind": "solubility kinetic", "Result": "> 42.8 µg/mL"}

Measured solubility kinetic of `O=C(c1cc2ccccc2s1)N1CCOCC1` : > 37.1 µg/mL

response.value for `O=S(=O)(c1ccc(Cl)nc1)N1CCOCC1` (field: solubility kinetic) = > 39.4 µg/mL

solubility kinetic reading for CC1CC1C(=O)OCC(=O)NCc1ccccc1 (stereo not drawn) : > 37.1 µg/mL

---

conditions: buffer; pH 7.4; 200.0 µM
List of solubility kinetic values.
Give the value, in units of µg/mL, as a plain number.

Solved entries (count: 2):
{"Compound": "O=C(OCC(=O)N1CCc2ccccc21)c1nc(Cl)ccc1Cl", "Reading Unit": "µg/mL", "solubility kinetic": 23.3}
{"Compound": "CNC(=S)Nc1ccc(OC(F)(F)F)cc1", "Reading Unit": "µg/mL", "solubility kinetic": 35.4}

Reported solubility kinetic ( `COc1cccc(N=C2CC(C)(C)CC(=O)/C2=C(/O)c2ccccc2)c1` ) = 0.9

Note to self: solubility kinetic recorded for `Cc1nc2cc(C)c(C)cc2s1` was 0.7

`Cc1ccc(NC(=O)CNC(=O)c2ccco2)cc1Cl` yielded solubility kinetic of 7

For record `CCSc1nsc(NC(=O)Nc2ccccc2OC)n1` the listed solubility kinetic is 2.6

# compound N=C1SC(CC(=O)Nc2ccccc2[N+](=O)[O-])C(=O)N1c1ccccc1 (stereo unspecified) ; its solubility kinetic = 0.2

The compound listed as Clc1ccc(C(CCN2CCCC2)Cc2ccccc2)cc1 (stereo unspecified) shows solubility kinetic equal to 29.8

---

settings: buffer; pH 7.4; 200.0 µM
Entries annotated with measured solubility kinetic

{"Compound": "COc1cccc(N2C(=O)C3CCCN3C2=S)c1 (configuration not stated)", "solubility kinetic": "> 39.3 µg/mL"}
{"Compound": "c1ccc2[nH]c(-c3cscn3)nc2c1", "solubility kinetic": "> 30.2 µg/mL"}
{"Compound": "COc1ccccc1NC(=O)C1CCOC1=O (configuration not stated)", "solubility kinetic": "> 35.3 µg/mL"}
{"Compound": "CCCc1cc(=O)[nH]c(SCc2nc3ccccc3o2)n1", "solubility kinetic": "> 45.2 µg/mL"}
{"Compound": "C[C@H](NC(=O)c1ccccc1Cl)C(=O)Nc1ccccc1F", "solubility kinetic": "> 48.1 µg/mL"}
{"Compound": "Cn1c(=O)[nH]c(NCCc2ccc(O)cc2)c([N+](=O)[O-])c1=O", "solubility kinetic": "> 45.9 µg/mL"}

The compound listed as `COc1ccccc1N1CCN(/N=C/c2ccccc2C(=O)O)CC1` shows solubility kinetic equal to > 50.9 µg/mL

---

Below is a list of entries, each paired with its recorded solubility kinetic value.
conditions: buffer; pH 7.4; 200.0 µM

{"Molecule": "O=C(Nc1ccc(Cl)c(Cl)c1)N1CCOCC1", "Result": "> 41.3 µg/mL"}
{"Molecule": "COc1ccc(/C=N/NC(=O)c2ccccc2O)cc1CN1CCOCC1", "Result": "> 55.4 µg/mL"}
{"Molecule": "O=C(NCCCn1ccnc1)c1ccc(Cl)s1", "Result": "> 40.5 µg/mL"}
{"Molecule": "O=C(CCNS(=O)(=O)c1ccccc1)N1CCCC1", "Result": "> 42.4 µg/mL"}
{"Molecule": "CCCCN(C(=O)C1CCCO1)c1c(N)n(CCC)c(=O)[nH]c1=O (configuration not stated)", "Result": "> 50.8 µg/mL"}

Please fill in: solubility kinetic reported for `COc1ccccc1Nc1nc(NCCCN(C)C)nc(N)c1[N+](=O)[O-]` = > 54.2 µg/mL

So, `Cc1ccc(NC(=O)COC(=O)c2cccnc2)cc1` ? Its solubility kinetic was > 40.5 µg/mL

GET /value?item= `CCc1sc(NC(=O)CN2CCC(C(N)=O)CC2)nc1-c1ccccc1` &field=solubility kinetic returns > 55.9 µg/mL
